meta.source: patent US20130053337A1

# hemolytic activity at 100 mg/L listing for each entry below
- Tested on: sheep red blood cell (erythrocytes)
- METHOD: Hemolytic assay (in vitro toxicity)
- MEASUREMENT SETUP: 100 mg/L; sheep erythrocytes; percent hemolysis
QUANTITY KIND: hemolytic activity at 100 mg/L (%)

- COMPOUND: "NC[C@H]1O[C@H](O[C@H]2[C@H](O)[C@@H](O[C@H]3O[C@H](CO)[C@@H](O)[C@H](N)[C@H]3O)[C@H](N)C[C@@H]2N)[C@H](O)[C@@H](O)[C@@H]1O [Kanamycin A, reference compound]"
  BOUND SIGN: "<"
  NUMBER: 0.4
- COMPOUND: "CCCCCCCCCCCC(=O)NCC1OC(OC2C(O)C(NC(=N)N)CC(NC(=N)N)C2OC2OC(CNC(=N)N)C(O)C(O)C2NC(=N)N)C(O)C1OC1OC(CNC(=N)N)C(O)C(O)C1NC(=N)N.O=C(O)C(F)(F)F.O=C(O)C(F)(F)F.O=C(O)C(F)(F)F.O=C(O)C(F)(F)F.O=C(O)C(F)(F)F.O=C(O)C(F)(F)F (stereo not drawn) [Compound 9]"
  BOUND SIGN: "="
  NUMBER: 2
- COMPOUND: "CC(CCC(=O)NCC1OC(OC2C(O)C(NC(=N)N)CC(NC(=N)N)C2OC2OC(CNC(=N)N)C(O)C(O)C2NC(=N)N)C(O)C1OC1OC(CNC(=N)N)C(O)C(O)C1NC(=N)N)C1CCC2C3C(O)CC4CC(O)CCC4(C)C3CC(O)C12C.O=C(O)C(F)(F)F.O=C(O)C(F)(F)F.O=C(O)C(F)(F)F.O=C(O)C(F)(F)F.O=C(O)C(F)(F)F.O=C(O)C(F)(F)F (stereo not drawn) [Compound 14]"
  BOUND SIGN: "="
  NUMBER: 2

###

- Tested on: P. aeruginosa (gentamicin-resistant) CAN-ICU 62308
- METHOD: MIC, broth macrodilution (CLSI)
- Format: cell-based
- MEASUREMENT SETUP: P. aeruginosa CAN-ICU 62308
- Method: All experiments were performed in duplicate. Bacterial isolates studied included both reference strains obtained from the American Type Culture Collection (ATCC) as well as clinical strains obtained from the CAN-ICU study which was a national surveillance study assessing the prevalence of antimicrobial resistant pathogens in Canadian intensive care units (Zhanel et al., 2008). Isolates were kept frozen in skim milk at −80° C. until minimum inhibitory concentration (MIC) testing was carried out. […]
QUANTITY KIND: log10(MIC) (log10 of the value in µg/mL)

- MOLECULE: "CCCCCCCCCCCC(=O)NCC1OC(OC2C(O)C(NC(=N)N)CC(NC(=N)N)C2OC2OC(CNC(=N)N)C(O)C(O)C2NC(=N)N)C(O)C1OC1OC(CNC(=N)N)C(O)C(O)C1NC(=N)N.O=C(O)C(F)(F)F.O=C(O)C(F)(F)F.O=C(O)C(F)(F)F.O=C(O)C(F)(F)F.O=C(O)C(F)(F)F.O=C(O)C(F)(F)F (stereo not drawn)"
  log10(MIC): 1.51
- MOLECULE: "CCCCC/C=C\\C/C=C\\CCCCCCCC(=O)NCC1OC(OC2C(O)C(NC(=N)N)CC(NC(=N)N)C2OC2OC(CNC(=N)N)C(O)C(O)C2NC(=N)N)C(O)C1OC1OC(CNC(=N)N)C(O)C(O)C1NC(=N)N.O=C(O)C(F)(F)F.O=C(O)C(F)(F)F.O=C(O)C(F)(F)F.O=C(O)C(F)(F)F.O=C(O)C(F)(F)F.O=C(O)C(F)(F)F (stereo not drawn)"
  log10(MIC): 1.81
- MOLECULE: "CCCCCCCCCCCCCCCC(=O)NCC1OC(OC2C(N)CC(N)C(OC3OC(CN)C(O)C(O)C3O)C2O)C(O)C(N)C1O.O=C(O)C(F)(F)F.O=C(O)C(F)(F)F.O=C(O)C(F)(F)F.O=C(O)C(F)(F)F (stereo not drawn)"
  log10(MIC): 1.81
- MOLECULE: "CCCCCCCCCCCCCCCC(=O)NCC1OC(OC2C(O)C(NC(=N)N)CC(NC(=N)N)C2OC2OC(CNC(=N)N)C(O)C(O)C2NC(=N)N)C(O)C1OC1OC(CNC(=N)N)C(O)C(O)C1NC(=N)N.O=C(O)C(F)(F)F.O=C(O)C(F)(F)F.O=C(O)C(F)(F)F.O=C(O)C(F)(F)F.O=C(O)C(F)(F)F.O=C(O)C(F)(F)F (stereo not drawn)"
  log10(MIC): 0.90
- MOLECULE: "CCCCCCCCCCCCCCCC(=O)NC[C@H]1O[C@@H](O[C@@H]2[C@@H](O)[C@H](N)C[C@H](N)[C@H]2O[C@H]2O[C@H](CN)[C@@H](O)[C@H](O)[C@H]2N)[C@H](O)[C@@H]1O[C@H]1O[C@@H](CN)[C@@H](O)[C@H](O)[C@H]1N.O=C(O)C(F)(F)F.O=C(O)C(F)(F)F.O=C(O)C(F)(F)F.O=C(O)C(F)(F)F.O=C(O)C(F)(F)F.O=C(O)C(F)(F)F"
  log10(MIC): 2.11
- MOLECULE: "CCCCCCCCCCCC(=O)NC[C@H]1O[C@@H](O[C@@H]2[C@@H](O)[C@H](N)C[C@H](N)[C@H]2O[C@H]2O[C@H](CN)[C@@H](O)[C@H](O)[C@H]2N)[C@H](O)[C@@H]1O[C@H]1O[C@@H](CN)[C@@H](O)[C@H](O)[C@H]1N.O=C(O)C(F)(F)F.O=C(O)C(F)(F)F.O=C(O)C(F)(F)F.O=C(O)C(F)(F)F.O=C(O)C(F)(F)F.O=C(O)C(F)(F)F"
  log10(MIC): 2.41
